Entries and their IFN-γ ELISpot response
# Tested on: PBMC (polyclonal gluten-specific T cells) of paediatric and adult CD patients
# run description: IFN-γ ELISpot of PBMC after 3 day oral wheat challenge (SFU, % of maximal peptide response, dominance scores, EC50; Examples 5-6)
# Type: cell-based, human
# condition context: patient four, 3-5yrs; after oral wheat challenge; cut-off 10 SFU
Your answer should be a plain number; it is taken to be in SFU.

> print(dat)
   polymer.sequence           readout.label  numeric.result
1     PEQPFPEQPEQPF  IFN-γ ELISpot response               4
2     PFPEQPEQPYPQQ  IFN-γ ELISpot response               4
3     FPQPEQEFPQPQQ  IFN-γ ELISpot response              10
4     QPFPQPEQPIPVQ  IFN-γ ELISpot response              10

# next sequence below
# IFN-γ ELISpot response lookup, item FLQPEQPFPEQPEQPYPEQPEQPFPQ
10

###

# System: PBMC (polyclonal gluten-specific T cells) of paediatric and adult CD patients
# run description: IFN-γ ELISpot of PBMC after 3 day oral wheat challenge (SFU, % of maximal peptide response, dominance scores, EC50; Examples 5-6)
# Format: cell-based, human
# condition context: subject V (3-5yrs/6-10yrs part), following wheat challenge
Listing of entries alongside the reported Cross-reactive T cell response.
Give your result in SFU as a bare value.

Consider the worked cases shown below.
> print(dat)
   polymer.sequence                              study.system  numeric.result
1     QPFPQPEQPFRQQ  PBMC (polyclonal gluten-specific T cells) of paediatric and adult CD patients              20
2  NPLQPEQPFPLQPQPP  PBMC (polyclonal gluten-specific T cells) of paediatric and adult CD patients               6

Consider the additional sequence presented here.
Field request: Cross-reactive T cell response | item: FPQTEQPEQPFPQP
6

###

This listing pairs substances with measured Dominance scores 11-18 yrs.
# System: PBMC (polyclonal gluten-specific T cells) of paediatric and adult CD patients
# run description: IFN-γ ELISpot of PBMC after 3 day oral wheat challenge (SFU, % of maximal peptide response, dominance scores, EC50; Examples 5-6)
# Format: cell-based, human
# condition context: children with celiac disease 11-18 yrs after wheat challenge (Table 14)

Answered cases to consult:
> print(dat)
                                  substance                              study.system               readout.label  result
1               LPYPQPELPYPQP [Peptide W01]  PBMC (polyclonal gluten-specific T cells) of paediatric and adult CD patients  Dominance scores 11-18 yrs      51
2  QPFPQPEQPFPWQ [Peptide W03, contains DQ2.5-glia-w1 and w2]  PBMC (polyclonal gluten-specific T cells) of paediatric and adult CD patients  Dominance scores 11-18 yrs      46
3  LQPFPQPELPYPQP [Peptide W02, contains DQ2.5-glia-a1a and a2]  PBMC (polyclonal gluten-specific T cells) of paediatric and adult CD patients  Dominance scores 11-18 yrs      60
4        W08 (LQPFPQPELPYSQP) [Peptide W08]  PBMC (polyclonal gluten-specific T cells) of paediatric and adult CD patients  Dominance scores 11-18 yrs      40

Now take the following substance into account.
Could you share what Dominance scores 11-18 yrs was measured for W32 (PFPEQPEQPFPQP) [Peptide W32] , tested on PBMC (polyclonal gluten-specific T cells) of paediatric and adult CD patients?
28

###

# Tested on: PBMC (polyclonal gluten-specific T cells) of paediatric and adult CD patients
# run description: IFN-γ ELISpot of PBMC after 3 day oral wheat challenge (SFU, % of maximal peptide response, dominance scores, EC50; Examples 5-6)
# Assay type: cell-based, human
# condition context: patient eleven, 6-10 yrs; after oral wheat challenge; cut-off 10 SFU
The entries below are paired with their reported IFN-γ ELISpot response.
Output spec: scalar in SFU, unitless text.

Recorded IFN-γ ELISpot response, per entry:
> print(dat)
   polymer.sequence           readout.label  numeric.result
1     LPYPQPQLPYPQP  IFN-γ ELISpot response              25
2     GQSGYYPTSPQQS  IFN-γ ELISpot response               4

Return reported IFN-γ ELISpot response; argument: PFPQQPQQPFPQP
3

Requested read-out: IFN-γ ELISpot response. Entry: GLERPWQEQPLPPQ
1

# IFN-γ ELISpot response lookup, item FPQPEQEFPQPQQ
1

###

# Test system: PBMC (polyclonal gluten-specific T cells) of paediatric and adult CD patients
# run description: IFN-γ ELISpot of PBMC after 3 day oral wheat challenge (SFU, % of maximal peptide response, dominance scores, EC50; Examples 5-6)
# Type: cell-based, human
# condition context: subject U, 11-17yrs, following wheat challenge
# Condition met = Cross-reactive T cell response below 20 SFU (exclusive); Condition not met = Cross-reactive T cell response at/above 20 SFU

Worked examples follow.
> print(dat)
   polymer.sequence              group
1     QPFPQPEQPIPQQ  Condition not met
2     QPFPQPEQELPLQ      Condition met
3     QPFPQPEQPFSWQ      Condition met

hey, is Cross-reactive T cell response for QPFPQPEQQLPLQ lower than 20 SFU or not?
Condition met

Is Cross-reactive T cell response strictly under 20 SFU for the entry PEQPFPEQPQPYPQQP ?
Condition met

###

# System: PBMC (polyclonal gluten-specific T cells) of paediatric and adult CD patients
# run description: IFN-γ ELISpot of PBMC after 3 day oral wheat challenge (SFU, % of maximal peptide response, dominance scores, EC50; Examples 5-6)
# Type: cell-based, human
# condition context: patient P, 11-17 yrs; after oral wheat challenge; cut-off 21.6 SFU
readout label: IFN-γ ELISpot response

Past entries and their recorded results:
> print(dat)
               polymer.sequence                              study.system           readout.label  result
1                LQPRPQPELPYPQP  PBMC (polyclonal gluten-specific T cells) of paediatric and adult CD patients  IFN-γ ELISpot response  64 SFU
2  LQPFPQPELPFPQP [Peptide W06]  PBMC (polyclonal gluten-specific T cells) of paediatric and adult CD patients  IFN-γ ELISpot response  33 SFU

Okay, next one:
If you can, please state the reported IFN-γ ELISpot response value of PEQTFPEQPQLPF .
4 SFU

###

# System: PBMC (polyclonal gluten-specific T cells) of paediatric and adult CD patients
# run description: IFN-γ ELISpot of PBMC after 3 day oral wheat challenge (SFU, % of maximal peptide response, dominance scores, EC50; Examples 5-6)
# Assay type: cell-based, human
# condition context: patient H, 11-17 yrs; after oral wheat challenge; cut-off 10 SFU
So basically: IFN-γ ELISpot response at 10 SFU or higher? That is satisfied. Lower than 10 SFU? That is not satisfied.

As a guide, the following entries are already answered.
> print(dat)
   polymer.sequence          group
1     PFPQQPQQPFPQP  not satisfied
2     QPFPQPQQPFSQQ  not satisfied
3    LQPFPQPELPYSQP      satisfied
4      QFIQPEQPFPQQ  not satisfied
5    GLERPWQEQPLPPQ      satisfied

State whether the measured IFN-γ ELISpot response reaches 10 SFU, counting equality as reaching it, for TIPEQPEQPFPLQ
not satisfied

For this sequence, is measured IFN-γ ELISpot response 10 SFU or higher? FLQPEQPFPEQPEQPYPEQPEQPFPQ
not satisfied

###

# IFN-γ ELISpot response per entry
# Tested on: PBMC (polyclonal gluten-specific T cells) of paediatric and adult CD patients
# run description: IFN-γ ELISpot of PBMC after 3 day oral wheat challenge (SFU, % of maximal peptide response, dominance scores, EC50; Examples 5-6)
# Assay type: cell-based, human
# condition context: patient Y, 6-10 yrs; after oral wheat challenge; cut-off 10 SFU
Numbers only; they are read as SFU.

Illustrative cases are given below, each with its answer.
> print(dat)
                           polymer.sequence  numeric.result
1  QPFPQPEQPFPWQ [Peptide W03, contains DQ2.5-glia-w1 and w2]               8
2                             PFPEQPEQPFPQP               4
3                            LQPRPQPELPYPQP              11
4                             QPFPQPQQPFSQQ               6
5                            GLERPWQEQPLPPQ               9
6                             PFPQQPQQPFPQP               6

IFN-γ ELISpot response lookup needed for LQPFPQPQLPYPQP , thanks.
14

Record request: IFN-γ ELISpot response value, item PEQPFPEQPEQPF
2

These data points were gathered from patent US20170232083A1.
